Data provenance: PubChem BioAssay AID1963977

Test system: 624824-186-R-J3-PDC multicell spheroids, viability;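 further: luminescent signal used as a stand-in for spheroid viability; spheroids exposed to agents for seven days before luminescence read; percent viability relative to DMSO vehicle control wells taken as 100%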
ASSAY_PROTOCOL: Anticancer human tumor 624824-186-R-J3-PDC patient-derived colon adenocarcinoma cell line growth inhibition [PI3K]
COND: second compound 0.00316 µM; first compound 0.316 µM; hits give low values
Please go through the items and note down their viability, T/C.
Answers are plain numbers, in %.

Some compounds with known viability, T/C results, for comparison:
1) CC1(C)CCC(Nc2ncc(C(F)(F)F)c(-c3c[nH]c4c(P(C)(C)=O)c(C#N)ccc34)n2)CN1 (stereo not drawn) + CC(Nc1ccc2c(c1)OCCn1cc(N3C(=O)OCC3C(F)F)nc1-2)C(N)=O ... 89.4
2) CC(C)NCC(C(=O)N1CCN(c2ncnc3c2C(C)CC3O)CC1)c1ccc(Cl)cc1 (stereo not drawn) + COc1c(OCCCN2CCOCC2)ccc2c3n(c(=NC(=O)c4cnc(N)nc4)nc12)CCN3 ... 106

Next:
Problem: Any idea what its viability, T/C is? The compound is C[C@@H](NC(=O)c1ncnc(N)c1Cl)c1ncc(C(=O)Nc2cc(C(F)(F)F)c(Cl)cn2)s1 + COc1c(OCCCN2CCOCC2)ccc2c3n(c(=NC(=O)c4cnc(N)nc4)nc12)CCN3
Result: 109
